Target: hGlyT-2 (Homo sapiens, UniProt Q9Y345)
Sequence (Q9Y345 whole entry): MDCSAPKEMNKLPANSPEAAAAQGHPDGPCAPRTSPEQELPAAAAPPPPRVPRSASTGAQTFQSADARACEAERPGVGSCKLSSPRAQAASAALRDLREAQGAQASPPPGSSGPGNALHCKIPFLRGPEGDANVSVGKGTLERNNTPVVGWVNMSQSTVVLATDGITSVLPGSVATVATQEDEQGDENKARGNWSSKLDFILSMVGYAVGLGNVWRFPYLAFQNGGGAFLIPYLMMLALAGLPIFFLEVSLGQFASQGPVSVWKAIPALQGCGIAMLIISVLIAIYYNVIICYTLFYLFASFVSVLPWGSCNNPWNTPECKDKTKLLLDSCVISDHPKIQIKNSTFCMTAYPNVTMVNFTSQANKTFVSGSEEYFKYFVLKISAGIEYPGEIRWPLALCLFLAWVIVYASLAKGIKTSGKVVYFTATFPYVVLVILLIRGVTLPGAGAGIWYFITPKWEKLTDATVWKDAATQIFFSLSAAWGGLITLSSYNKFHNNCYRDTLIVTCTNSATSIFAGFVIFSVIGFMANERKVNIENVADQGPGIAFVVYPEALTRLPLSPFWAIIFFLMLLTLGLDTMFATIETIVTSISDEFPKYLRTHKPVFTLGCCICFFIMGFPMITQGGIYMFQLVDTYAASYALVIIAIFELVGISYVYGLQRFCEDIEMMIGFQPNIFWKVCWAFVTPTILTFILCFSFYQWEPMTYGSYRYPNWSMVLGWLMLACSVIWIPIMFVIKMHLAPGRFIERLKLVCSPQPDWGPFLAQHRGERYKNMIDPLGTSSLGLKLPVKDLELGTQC
Test: Glycine uptake assay, CHO cells stably transfected with hGlyT-2
Conditions: [3H]-glycine 30 μM, 37° C., 10 minutes, read-out: Inhibition of glycine transport by hGlyT-2 IC50
pIC50: −log10 of the molar value.
Note to self: values exactly at 7 are criterion met. So pIC50 at or above 7 is criterion met, below is criterion not met.

Reference set (2 entries):
- Smiles string: "COc1cc(C(=O)NCC2(N(C)C)CCCC2)cc(OC)c1OCc1ccc(Cl)cc1"
  Category: "criterion met"
- Smiles string: "Cc1cc(C(=O)NCC2(N(C)C)CCC2)cc(C)c1OCc1ccccc1"
  Category: "criterion met"

Req: Does pIC50 meet or surpass 7 for COc1cc(C(=O)NCC2(N(C)C)CCCC2)cc(OC)c1OCc1cccc2ccccc12 ?
Resp: criterion not met

Req: Does pIC50 meet or surpass 7 for COc1cc(C(=O)NCC2(N(C)C)CCCC2)cc(OC)c1OC1CCCC1 ?
Resp: criterion not met
